- test target: Bromodomain adjacent to zinc finger domain protein 2B (Homo sapiens) (UniProt Q9UIF8)
- Sequence (Q9UIF8 whole entry, looked up, the tested form may be a part): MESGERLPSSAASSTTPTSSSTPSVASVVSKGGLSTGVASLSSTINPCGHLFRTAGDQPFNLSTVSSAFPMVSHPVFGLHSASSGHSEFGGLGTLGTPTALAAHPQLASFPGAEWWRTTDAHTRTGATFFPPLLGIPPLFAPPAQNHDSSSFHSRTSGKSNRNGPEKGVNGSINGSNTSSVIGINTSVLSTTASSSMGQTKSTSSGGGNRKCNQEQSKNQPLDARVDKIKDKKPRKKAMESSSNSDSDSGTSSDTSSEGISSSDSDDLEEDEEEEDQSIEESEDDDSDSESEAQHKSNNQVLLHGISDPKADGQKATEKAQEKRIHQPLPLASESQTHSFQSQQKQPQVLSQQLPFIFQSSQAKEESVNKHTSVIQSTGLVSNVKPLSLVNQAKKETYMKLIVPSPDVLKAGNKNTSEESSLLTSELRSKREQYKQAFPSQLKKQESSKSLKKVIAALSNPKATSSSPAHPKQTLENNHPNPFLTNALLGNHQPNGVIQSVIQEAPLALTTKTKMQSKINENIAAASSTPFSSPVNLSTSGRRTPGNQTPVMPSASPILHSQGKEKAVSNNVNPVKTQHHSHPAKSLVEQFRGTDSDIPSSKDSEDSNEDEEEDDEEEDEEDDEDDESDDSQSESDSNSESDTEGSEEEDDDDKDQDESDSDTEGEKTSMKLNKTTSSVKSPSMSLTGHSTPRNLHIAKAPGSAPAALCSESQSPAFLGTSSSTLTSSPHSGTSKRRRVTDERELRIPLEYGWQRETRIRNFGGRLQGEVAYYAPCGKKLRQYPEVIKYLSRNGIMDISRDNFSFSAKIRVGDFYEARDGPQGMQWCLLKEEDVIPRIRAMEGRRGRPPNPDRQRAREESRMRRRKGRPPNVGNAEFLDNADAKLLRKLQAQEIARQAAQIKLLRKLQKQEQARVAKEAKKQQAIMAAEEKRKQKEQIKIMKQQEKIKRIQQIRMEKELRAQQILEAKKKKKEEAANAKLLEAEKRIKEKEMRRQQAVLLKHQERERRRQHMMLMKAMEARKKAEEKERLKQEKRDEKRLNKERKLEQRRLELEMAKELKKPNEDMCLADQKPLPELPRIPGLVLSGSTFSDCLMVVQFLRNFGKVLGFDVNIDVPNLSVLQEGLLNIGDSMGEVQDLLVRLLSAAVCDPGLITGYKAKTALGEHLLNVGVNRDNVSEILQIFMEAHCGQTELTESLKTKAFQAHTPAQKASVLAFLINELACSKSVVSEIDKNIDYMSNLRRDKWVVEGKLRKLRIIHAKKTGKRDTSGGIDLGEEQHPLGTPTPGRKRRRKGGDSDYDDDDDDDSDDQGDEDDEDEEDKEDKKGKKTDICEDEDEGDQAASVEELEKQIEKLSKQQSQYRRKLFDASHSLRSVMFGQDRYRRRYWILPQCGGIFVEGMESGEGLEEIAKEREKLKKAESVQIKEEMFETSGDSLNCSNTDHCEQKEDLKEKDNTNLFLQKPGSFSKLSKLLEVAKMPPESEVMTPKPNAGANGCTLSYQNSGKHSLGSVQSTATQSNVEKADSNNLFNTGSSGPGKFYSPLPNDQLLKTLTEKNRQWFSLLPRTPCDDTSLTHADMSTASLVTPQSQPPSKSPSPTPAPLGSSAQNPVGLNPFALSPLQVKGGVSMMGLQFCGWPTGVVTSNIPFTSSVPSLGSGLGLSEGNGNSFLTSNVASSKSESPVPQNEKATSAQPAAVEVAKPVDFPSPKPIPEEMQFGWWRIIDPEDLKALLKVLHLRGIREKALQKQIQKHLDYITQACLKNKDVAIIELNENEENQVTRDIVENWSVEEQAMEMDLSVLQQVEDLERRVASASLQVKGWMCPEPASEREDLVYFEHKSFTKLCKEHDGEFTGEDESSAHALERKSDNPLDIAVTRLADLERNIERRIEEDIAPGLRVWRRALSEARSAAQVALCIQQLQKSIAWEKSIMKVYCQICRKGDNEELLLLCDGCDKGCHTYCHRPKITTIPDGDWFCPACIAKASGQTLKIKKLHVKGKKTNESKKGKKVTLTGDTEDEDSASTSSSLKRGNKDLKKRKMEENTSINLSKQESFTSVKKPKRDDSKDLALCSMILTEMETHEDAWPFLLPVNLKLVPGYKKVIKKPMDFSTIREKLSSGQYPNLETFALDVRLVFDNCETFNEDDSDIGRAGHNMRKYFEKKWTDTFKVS
- test name: qHTS Assay for Inhibitors of BAZ2B; note: nearly all actives have a fitted effect of over 60% in size
- test settings: AlphaScreen BAZ2B-H3K14Ac peptide displacement; series mostly up to 114 µM
Screen size: about 360,000 compounds; about 16,000 (4.4%) were called active. Another 9% or so got no clear call; they are omitted. Calls come from the whole dose curve; as a rule, active = well fitted inhibition curve with a large enough effect; inconclusive = small, poorly fitted or top-dose-only effect; inactive = no such curve, though single readings can be large or run the other way. For the sample, actives were picked, then their nearest neighbours and some compounds at random.
Your reply should match one of these outcome classes. True = active, False = inactive

Worked cases, answers included:
CC(=O)c1cc(C#N)c(SCC(=O)Nc2nccs2)nc1C: False
CC(=O)c1cc(C#N)c(SCC(=O)C(C)(C)C)nc1C: False
Cc1nnc(NCc2ccccc2)c2c1nnn2Cc1ccc(F)cc1: False
CCc1nnc(NC(=O)Cc2cccs2)s1: False
O=c1n(Cc2cccc(C(F)(F)F)c2)c2ccccc2c2nc(-c3ccccc3)nn12: False
CC(NC(=O)c1cc2c(=O)n3ccccc3nc2n(C(C)C)c1=N)c1ccccc1 (configuration not stated): False

GET /call?item= "COCCNC(=S)N/N=C/c1c(C)[nH]c2ccccc12" returns the recorded outcome of this test.
False

GET /call?item= CCN1C(=O)c2ccccc2S(=O)c2ccc(C(=O)NCc3ccc(F)cc3)cc21 (configuration not stated) returns the recorded outcome of this test.
False

GET /call?item= "CC1CCN(c2oc(-c3ccccc3F)nc2C#N)CC1" returns the recorded outcome of this test.
True

Just for reference, PubChem BioAssay AID504333 is where these values come from.
